Values compiled from ChEMBL document CHEMBL4196009.

Record form. Attribute: EC50. Fill in for each entry.
- System: HepG2
- Method notes: Antiproliferative activity against human HepG2 cells after 72 hrs by CelTiter-Glo assay
- Assay type: functional, cell-based
- Run parameters: HepG2, 72 h

Example results:
• COC(=O)c1cc(=O)c2cc(NC(=O)NCc3ccccc3)ccc2[nH]1 = > 19.5 µM
• COc1ccc(-c2cc(=O)c3c(OC)cc(OC)cc3n2S(=O)(=O)c2ccc(Br)s2)cc1 = > 48.3 µM
• COC(=O)c1cc(=O)c2cc(NC(=O)N[C@@H](C)c3cccc(OC)c3)ccc2[nH]1 = > 25.3 µM
• COc1ccc(-c2cc(=O)c3c(OC)cc(OC)cc3n2S(=O)(=O)c2c(F)c(F)c(F)c(F)c2F)cc1 = > 34.5 µM
• COC(=O)c1cc(=O)c2cc(NC(=O)Nc3cc(OC)c(OC)c(OC)c3)ccc2[nH]1 = > 43.3 µM

Take each entry in turn and give its EC50.
1. COC(=O)c1cc(=O)c2cc(N)ccc2[nH]1
2. COc1ccc(-c2cc(=O)c3c(OC)cc(OC)cc3n2S(=O)(=O)c2cccc([N+](=O)[O-])c2)cc1
3. COc1ccc(-c2cc(=O)c3c(OC)cc(OC)cc3n2S(=O)(=O)c2ccc(C)cc2)cc1
4. COc1cc(OC)c2c(=O)cc(C(=O)Nc3ccc(-n4cccc4)cc3)[nH]c2c1

A:
1: > 33.8 µM; 2: > 39.7 µM; 3: > 44.8 µM; 4: > 77 µM
